# Tested on: T-cell
# assay overview: Immunosuppressant activity in human T lymphocytes assessed as inhibition of anti-human CD3 and anti-human CD28 monoclonal antibody-induced T lymphocyte proliferation incubated for 72 hrs by FACS analysis
# Format: functional, cell-based
Catalogue of log10 IC50 values
Base-10 log of IC50, unit µM.

Consider the worked cases shown below.
C=C1C(=O)O[C@H]([C@H]2C(=O)C=C[C@@]2(C)O)[C@H]1CCC(C)=O (relative stereo): 0.08
C=C1C(=O)O[C@H]2[C@H]1CC[C@@](C)(O)[C@@]13O[C@@H]1[C@@H]1O[C@]1(C)[C@H]23: 0.57

Form field: reported log10 IC50 of C=C1C(=O)O[C@H]([C@@H]2C(=O)C=C[C@]2(C)O)[C@H]1CCC(C)=O (relative stereo) [SECOTANAPARTHOLIDE B]
0.00

Form field: reported log10 IC50 of C=C1C(=O)O[C@@H]2[C@H]3C(C)=CC[C@@H](O)[C@]3(C)CC[C@@H]12
1.29

====

# Tested on: T-cell
# assay overview: Immunosuppressant activity in human T lymphocytes assessed as inhibition of anti-human CD3 and anti-human CD28 monoclonal antibody-induced T lymphocyte proliferation incubated for 72 hrs by FACS analysis
# Assay type: functional, cell-based
reported metric: IC50 (µM)
Write the value in µM as a bare number.

Look up IC50 with T-cell for this compound: C=C1[C@@H](OC(C)=O)C[C@@H](O)[C@]2(C)CCC3=C(COC(C)=O)C(=O)O[C@@H]3[C@@H]12
13.8

====

Catalogue of pIC50 values
# Tested on: T-cell
# assay overview: Immunosuppressant activity in human T lymphocytes assessed as inhibition of anti-human CD3 and anti-human CD28 monoclonal antibody-induced T lymphocyte proliferation incubated for 72 hrs by FACS analysis
# Assay type: functional, cell-based
// pIC50 here means minus log10 of the molar concentration (mol/L)

Consider the worked cases shown below.
COc1cc(-c2cc(=O)c3c(O)c(OC)c(O)cc3o2)ccc1O: 5.24
C=C1C(=O)O[C@H]2[C@H]1[C@@H](OC(C)=O)CC(C)=C1C[C@H]3O[C@@]3(C)[C@@H]12: 5.72
COc1ccc(-c2cc(=O)c3c(O)c(OC)c(O)cc3o2)cc1OC: 4.93
C=C1C(=O)O[C@H]2[C@H]1CC[C@@](C)(O)[C@]13O[C@H]1[C@H]1O[C@@]1(C)[C@H]23: 5.57

Form field: reported pIC50 of C=C1C(=O)O[C@@H]2[C@@H]3[C@@]4(C=C[C@@]3(C)[C@@]3(C4)C(=O)O[C@@H]4[C@H]5C(C)=CC(=O)C5=C(C)C[C@H](OC(C)=O)[C@H]43)[C@](C)(O)CC[C@@H]12
5.49
